Test: inhibitors of CD8+ T cell-vesicle binding, pilot screen, LFA-1/ICAM-1 modulator project, MLPCN validation set, flow cytometry (AID 2523)
Settings: 2C mouse CD8+ T cells, at 7 µM, stronger effect = lower value; measured here: CD8+/vesicle+ event percentage
READOUT: double positive events (%)

> print(dat)
                                    compound  readout.unit  number
 1              Oc1[nH]c2ccccc2c1N=Nc1ccccc1             %    49.4
 2                 O=C(Oc1cccccc1=O)c1ccccc1             %    63.4
 3       O=C(/C=C/c1ccco1)N1CCN(c2ccccc2)CC1             %    56.2
 4           CC(C)(C)c1csc(N/N=C/c2cccnc2)n1             %    53.8
 5                     NC12CC3CC(CC(C3)C1)C2             %    60.2
 6               N=C1C(c2ccccc2)=C(O)CN1CCCO             %    58.1
 7  COC(=O)C1=C(C)NC(C)=C(C(=O)OC)C1c1ccccc1[N+](=O)[O-]             %    53.9
 8  C[N+]12CCCCC1C(COC(=O)c1ccc3c(c1)OCO3)CCC2 (stereo not drawn)             %      62
 9  Cc1nnc(SCC(=O)N2CCCC(C(=O)c3ccc(Cl)cc3)C2)o1 (stereo not drawn)             %    71.9
10       Cn1c(=O)[nH]c(=O)c2c1ncn2CCN1CCOCC1             %    63.6
11                CC(C)NC(=O)c1ccc(C(C)C)cc1             %    63.6
12  COc1ccc2c(c1)C(=O)CC(c1ccccc1F)O2 (stereo not drawn)             %      62
13        CN1CCC(=C2c3ccccc3C=Cc3ccccc32)CC1             %    62.8
